test system: Hara (NRF2 pathway wild type cell line with low AKR1C3 expression); test: In vitro cell proliferation assay (CellTiter-Glo), Hara; format: cell-based; settings: 72 h; Hara cells, 3 days, CellTiter-Glo, top concentration 10 μM; read-out: HARA Qualified absolute AC50
AC50 by entry:
Measured Quantity: AC50 (µM)

• CN1c2ccc(F)cc2C(O)CC12CCN(C(=O)NCc1ccc(F)c(NCCO)c1)CC2 (stereo not shown) = 0.023
• CCN1c2ccc(F)cc2C(=O)CC12CCN(C(=O)NCc1ccc(F)c(NCCO)c1)CC2 = 1.66
• O=C1CC2(CCN(C(=O)NCc3ccc(F)c(CNCCO)c3)CC2)Nc2ccc(F)cc21 = 2.79

---

test system: Hara (NRF2 pathway wild type cell line with low AKR1C3 expression); experiment: In vitro cell proliferation assay (CellTiter-Glo), Hara; format: cell-based; conditions: 72 h; Hara cells, 3 days, CellTiter-Glo, top concentration 10 μM; read-out: HARA Qualified absolute AC50
AC50 by entry:
Measured Quantity: AC50

- COCCNc1cc(CNC(=O)N2CCC3(CC2)CC(=O)c2cc(F)ccc2N3)ccc1F: > 10 µM
- O=C1CC2(CCN(C(=O)NCc3cc(OCCO)c(F)cc3F)CC2)Nc2ccc(F)cc21: > 10 µM
- CN1c2ccc(F)cc2C(=O)CC12CCN(C(=O)NCc1ccc(F)c(CC(N)=O)c1)CC2: > 10 µM
- O=C(NCc1ccc(F)cc1)N1CCC2(CC1)C[C@H](O)c1cc(F)ccc1N2 (single isomer, unassigned): 2.5 µM
- CN1c2ccc(F)cc2C(=O)CC12CCN(C(=O)NCc1ccc(F)c(N)c1F)CC2: > 10 µM
- Nc1c(F)cc(CNC(=O)N2CCC3(CC2)CC(=O)c2cc(F)ccc2N3)cc1F: > 10 µM
- NC(=O)c1coc(CNC(=O)N2CCC3(CC2)CC(=O)c2cc(F)cc(F)c2N3)c1: > 10 µM
- O=C1CC2(CCN(C(=O)NCc3ccc(O)cc3)CC2)Nc2ccc(F)cc21: > 10 µM

---

AC50 by entry:
system: Hara (NRF2 pathway wild type cell line with low AKR1C3 expression); assay: In vitro cell proliferation assay (CellTiter-Glo), Hara; assay type: cell-based; conditions: 72 h; Hara cells, 3 days, CellTiter-Glo, top concentration 10 μM; read-out: HARA Qualified absolute AC50
Measured Quantity: AC50

- COCCNc1cc(F)ccc1CNC(=O)N1CCC2(CC1)CC(=O)c1cc(F)ccc1N2C [Example 20]: > 10 µM
- O=C1CC2(CCN(C(=O)NCc3ccc4cc[nH]c4c3)CC2)Nc2ccc(F)cc21 [Example 120]: > 10 µM
- CCN1c2ccc(F)cc2C(=O)CC12CCN(C(=O)NCc1ccc(F)c(NCCO)c1F)CC2 [Example 75]: > 10 µM
- NS(=O)(=O)c1cc(CNC(=O)N2CCC3(CC2)CC(=O)c2cc(F)ccc2N3)ccc1F [Example 30]: > 10 µM
- CN1c2ccc(F)cc2C(O)CC12CCN(C(=O)NCc1ccc(F)c([C@@H](N)C(F)(F)F)c1)CC2 (mixture of isomers) [Example 167]: 0.1 µM
- Nc1cc(F)ccc1CNC(=O)N1CCC2(CC1)CC(=O)c1cc(F)ccc1N2 [Example 137]: > 10 µM
- CC(C)S(=O)(=O)Nc1cc(CNC(=O)N2CCC3(CC2)CC(=O)c2cc(F)ccc2N3)ccc1F [Example 23]: > 10 µM
- NC(=O)c1cc(CNC(=O)N2CCC3(CC2)CC(O)c2cc(F)cc(F)c2N3)ccc1F (racemic) [Example 157]: 0.002 µM

---

tested on: H460 (NRF2 pathway mutant cell line with high AKR1C3 expression); test: In vitro cell proliferation assay (CellTiter-Glo), H460; format: cell-based; details: Homo sapiens, NCI-H460, 72 h; H460 cells, 3 days, CellTiter-Glo, top concentration 10 μM; read-out: H460 Qualified absolute AC50
Measured Quantity: AC50

* COCCNC(=O)c1cc(CNC(=O)N2CCC3(CC2)CC(=O)c2cc(F)ccc2N3C)ccc1F | 181 nM
* CS(=O)(=O)Nc1cc(CNC(=O)N2CCC3(CC2)CC(=O)c2cc(F)ccc2N3)ccc1F | 1620 nM
* O=C1CC2(CCN(C(=O)NCc3ccc(F)c(-c4cnco4)c3)CC2)Nc2ccc(F)cc21 | 29 nM
* CN1c2ccc(F)cc2C(=O)CC12CCN(C(=O)NCc1ccc(F)c(NC[C@H](O)CO)c1)CC2 | 100 nM

---

system: H460 (NRF2 pathway mutant cell line with high AKR1C3 expression); test: In vitro cell proliferation assay (CellTiter-Glo), H460; format: cell-based; settings: Homo sapiens, NCI-H460, 72 h; H460 cells, 3 days, CellTiter-Glo, top concentration 10 μM; read-out: H460 Qualified absolute AC50
Kindly apply the following: rule met if AC50 is less than 0.3 µM, rule not met in every other case.

• CN(C)c1cccc(CNC(=O)N2CCC3(CC2)CC(=O)c2cc(F)cc(F)c2N3)n1 = rule met
• CN1c2ccc(F)cc2C(=O)CC12CCN(C(=O)NCc1ccc(F)c(C(=O)NCC(C)(C)O)c1)CC2 = rule not met
• CCc1noc(C)c1CNC(=O)N1CCC2(CC1)CC(=O)c1cc(F)ccc1N2 = rule not met
• [2H]C([2H])(NC(=O)N1CCC2(CC1)CC(=O)c1cc(F)ccc1N2)c1ccc(F)cc1 = rule met
• Cc1ccc(CNC(=O)N2CCC3(CC2)CC(=O)c2cc(F)cc(F)c2N3)s1 = rule not met
• Cc1occc1CNC(=O)N1CCC2(CC1)C[C@@H](O)c1cc(F)ccc1N2 (single isomer, unassigned) = rule met
• O=C1CC2(CCN(C(=O)NCc3cccc(-c4ncc[nH]4)c3)CC2)Nc2ccc(F)cc21 = rule not met
• Cc1c(CNC(=O)N2CCC3(CC2)CC(=O)c2cc(F)ccc2N3)ccc(F)c1C(N)=O = rule not met
• Cc1cc(CNC(=O)N2CCC3(CC2)CC(=O)c2cc(F)ccc2N3)c(C)o1 = rule not met
• CN1c2ccc(F)cc2C(=O)CC12CCN(C(=O)NCc1ccc(F)c(N)c1)CC2 = rule met
• O=C1CC2(CCN(C(=O)NCc3ccc(F)c(NS(=O)(=O)C4CC4)c3)CC2)Nc2ccc(F)cc21 = rule not met
• CN1c2ccc(F)cc2C(=O)CC12CCN(C(=O)NCc1ccc(F)cc1)CC2 = rule met
• O=C(NCC(=O)C1CC1)c1cc(CNC(=O)N2CCC3(CC2)CC(=O)c2cc(F)ccc2N3)ccc1F = rule not met
• O=C1CC2(CCN(C(=O)NCc3ccc(O)cc3)CC2)Nc2ccc(F)cc21 = rule met
• Cc1noc(CNC(=O)N2CCC3(CC2)CC(=O)c2cc(F)ccc2N3)n1 = rule not met

---

test system: H460 (NRF2 pathway mutant cell line with high AKR1C3 expression); experiment: In vitro cell proliferation assay (CellTiter-Glo), H460; format: cell-based; settings: Homo sapiens, NCI-H460, 72 h; H460 cells, 3 days, CellTiter-Glo, top concentration 10 μM; read-out: H460 Qualified absolute AC50
Kindly apply the following: True if AC50 is less than 200 nM, False in every other case.

- Nc1cc(F)ccc1CNC(=O)N1CCC2(CC1)CC(=O)c1cc(F)ccc1N2: False
- COCCN1c2ccc(F)cc2C(=O)CC12CCN(C(=O)NCc1ccc(F)cc1)CC2: True
- Nc1ccc(CNC(=O)N2CCC3(CC2)CC(=O)c2cc(F)ccc2N3)c(F)c1F: True
- O=C1CC2(CCN(C(=O)NCc3ccc(F)cc3F)CC2)Nc2ccc(F)cc21: True
- O=C(NCc1ccc(F)cc1O)N1CCC2(CC1)C[C@H](O)c1cc(F)ccc1N2 (single isomer, unassigned) [Example 154b]: False
- Nc1ccc(CNC(=O)N2CCC3(CC2)CC(=O)c2cc(F)ccc2N3)c(F)c1: False
- CC(O)c1cc(CNC(=O)N2CCC3(CC2)CC(=O)c2cc(F)ccc2N3C)ccc1F (centres unmarked): False
- NC(=O)c1coc(CNC(=O)N2CCC3(CC2)CC(=O)c2cc(F)cc(F)c2N3)c1: True

---

test system: Hara (NRF2 pathway wild type cell line with low AKR1C3 expression); assay: In vitro cell proliferation assay (CellTiter-Glo), Hara; type: cell-based; details: 72 h; Hara cells, 3 days, CellTiter-Glo, top concentration 10 μM; read-out: HARA Qualified absolute AC50
Kindly apply the following: Y if AC50 is less than 1 µM, N in every other case.

* O=C(NC1COC1)c1cc(CNC(=O)N2CCC3(CC2)CC(=O)c2cc(F)ccc2N3)ccc1F [Example 105] | N
* CN1c2ccc(F)cc2C(O)CC12CCN(C(=O)NCc1cc(NCCO)c(F)cc1F)CC2 (racemic) [Example 156] | Y
* Cc1noc(CNC(=O)N2CCC3(CC2)CC(=O)c2cc(F)ccc2N3)n1 [Example 134] | Y
* O=C1CC2(CCN(C(=O)NCc3ccc(F)c(CO)c3)CC2)Nc2ccc(F)cc21 [Example 83] | N
* O=C1CC2(CCN(C(=O)NCc3ccc(F)cc3Cl)CC2)Nc2ccc(F)cc21 [Example 68] | N
* Nc1cc(F)c(CNC(=O)N2CCC3(CC2)CC(=O)c2cc(F)ccc2N3)c(F)c1 [Example 80] | N
* CN1c2ccc(F)cc2C(=O)CC12CCN(C(=O)NCc1ccc(F)c(C(N)=O)c1)CC2 [Example 41] | N
* NC(=O)c1cc(CNC(=O)N2CCC3(CC2)CC(O)c2cc(F)ccc2N3)ccc1F (racemic) [Example 160] | Y
* CN1c2ccc(F)cc2C(=O)CC12CCN(C(=O)NCc1ccc(F)c(NC[C@H](O)CO)c1)CC2 [Example 45] | N
* Cc1cc(CNC(=O)N2CCC3(CC2)CC(=O)c2cc(F)ccc2N3)ccc1N [Example 119] | N
* Cn1cc(CNC(=O)N2CCC3(CC2)CC(=O)c2cc(F)ccc2N3)cn1 [Example 145] | N
* NC(=O)c1c(F)ccc(CNC(=O)N2CCC3(CC2)CC(=O)c2cc(F)ccc2N3)c1F [Example 109] | N
* O=C(NCc1ccc(F)cc1O)N1CCC2(CC1)C[C@H](O)c1cc(F)ccc1N2 (single isomer, unassigned) [Example 154b] | Y
* COc1cc(CNC(=O)N2CCC3(CC2)CC(=O)c2cc(F)ccc2N3C)ccc1F [Example 8] | N
* O=C1CC2(CCN(C(=O)NCc3ccccc3)CC2)Nc2ccc(F)cc21 [Example 33] | N
* Nc1ccc(CNC(=O)N2CCC3(CC2)CC(=O)c2cc(F)ccc2N3)cc1F [Example 56] | N
